Listed next: entries and their corresponding pIC50.
- Experimental target: ΔCTD_Reg1 (amino acids 1 to 546 of human Regnase-1) phosphorylation by TBK1 (Homo sapiens, UniProt Q5D1E8)
- Construct: made in house; host or cells: Expi293 cells
- Sequence (Q5D1E8 1-546): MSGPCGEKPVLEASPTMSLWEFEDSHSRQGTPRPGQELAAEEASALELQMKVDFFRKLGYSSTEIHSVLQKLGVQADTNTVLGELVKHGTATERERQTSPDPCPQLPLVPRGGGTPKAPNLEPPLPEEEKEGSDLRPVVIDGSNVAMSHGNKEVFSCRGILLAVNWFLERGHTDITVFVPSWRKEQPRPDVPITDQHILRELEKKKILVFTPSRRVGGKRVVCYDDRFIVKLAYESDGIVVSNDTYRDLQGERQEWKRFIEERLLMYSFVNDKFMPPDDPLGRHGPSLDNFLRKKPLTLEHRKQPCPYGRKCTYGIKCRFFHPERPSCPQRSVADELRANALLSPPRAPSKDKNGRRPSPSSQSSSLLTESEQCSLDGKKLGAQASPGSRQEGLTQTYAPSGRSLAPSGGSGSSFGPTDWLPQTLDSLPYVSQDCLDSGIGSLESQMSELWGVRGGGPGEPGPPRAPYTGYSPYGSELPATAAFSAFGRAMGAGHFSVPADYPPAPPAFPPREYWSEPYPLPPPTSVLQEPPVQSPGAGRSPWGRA
- Experimental protocol: Regnase-1 phosphorylation inhibition by compounds (AlphaScreen), TBK1, CTD-deficient Regnase-1
- Type: biochemical
- Run conditions: Table 11; 2 nM Regnase-1; AlphaScreen; read-out: 50% inhibition concentration, Regnase-1 phosphorylation, ΔCTD_Reg1, TBK1
Residues, ends and D or L forms follow the SMILES beside them.
Recall that pIC50 is obtained by taking minus log10 of the concentration measured in molar.

{"columns": ["Compound", "pIC50"],
 "data": [
  ["CC[C@H](C)[C@@H]1NC(=O)[C@H](CCCCN)NC(=O)[C@H](Cc2ccccc2)NC(=O)[C@H](Cc2c[nH]c3ccccc23)NC(=O)[C@H](CO)NC(=O)[C@H](CO)NC(=O)[C@H](CC(N)=O)NC(=O)[C@@H]2CCCN2C(=O)[C@@H](C)N(C)C(=O)C[C@@H](C(=O)N2CCCC2)NC(=O)[C@H](Cc2c[nH]c3ccccc23)NC1=O [PP6] (HELM PEPTIDE1{[C[C@H](C(=O)[*:2])N(C)[*:1]].P.N.S.S.W.F.K.I.W.D.[C1CCN([*:1])C1]}$PEPTIDE1,PEPTIDE1,1:R1-11:R3$$$V2.0)", 4.84]
]}

Next item in the queue.
Prompt: Any idea what pIC50 was measured for CC[C@H](C)[C@@H]1NC(=O)[C@H](CCCNC(=N)N)NC(=O)[C@H](Cc2ccc(O)cc2)NC(=O)[C@H](Cc2c[nH]c3ccccc23)NC(=O)[C@H](C)NC(=O)[C@H](CO)NC(=O)[C@H](C)NC(=O)[C@H](Cc2c[nH]cn2)NC(=O)[C@H](CCCCN)NC(=O)[C@@H](C)N(C)C(=O)C[C@@H](C(=O)N2CCCC2)NC(=O)[C@H](Cc2c[nH]c3ccccc23)NC1=O [PP3] (HELM PEPTIDE1{[C[C@H](C(=O)[*:2])N(C)[*:1]].K.H.A.S.A.W.Y.R.I.W.D.[C1CCN([*:1])C1]}$PEPTIDE1,PEPTIDE1,1:R1-12:R3$$$V2.0) ?
Completion: 5.24
